Origin of values: patent US20250368745A1

Molecular target: T1, human IL-18BP (human, UniProt O95998 31-194)
T1 construct: UniProt printed as 095998; also called hIL-18BP
T1 sequence: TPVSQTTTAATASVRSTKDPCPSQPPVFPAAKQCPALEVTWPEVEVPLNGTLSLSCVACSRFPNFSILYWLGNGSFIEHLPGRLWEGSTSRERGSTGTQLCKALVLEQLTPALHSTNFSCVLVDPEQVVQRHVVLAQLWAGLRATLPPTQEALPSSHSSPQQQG
Assay: BLI, apparent KD
Assay Endpoint: pKd
// pKd is dimensionless: -log10 of concentration (M)

// below: answered binders
SA301a HC-Y53K (antibody, name in Kabat numbering, V domains shown, IgG1 kappa) VH: QVQLQESGPGLVKPSQTLSLTCTVSGYSITSDYNSHWIRQPPGKGLEWIGYIHKSGSTNYNPSLKSRVTISRDTSKNQFSLKLSSVTAADTAVYYCARNYGSIYVNYFDYWGQGTLVTVSS VL: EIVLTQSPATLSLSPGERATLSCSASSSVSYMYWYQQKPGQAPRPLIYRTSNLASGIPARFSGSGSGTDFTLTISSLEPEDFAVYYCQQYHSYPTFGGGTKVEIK | 8.50
SA301a HC-Y53T (antibody, name in Kabat numbering, V domains shown, IgG1 kappa) VH: QVQLQESGPGLVKPSQTLSLTCTVSGYSITSDYNSHWIRQPPGKGLEWIGYIHTSGSTNYNPSLKSRVTISRDTSKNQFSLKLSSVTAADTAVYYCARNYGSIYVNYFDYWGQGTLVTVSS VL: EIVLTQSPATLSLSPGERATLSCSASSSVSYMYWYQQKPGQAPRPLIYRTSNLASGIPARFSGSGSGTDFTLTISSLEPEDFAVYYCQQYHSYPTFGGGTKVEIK | 8.71

Next binder, pKd to be filled in.
If you can, please state the reported pKd value of SA301a HC-Y53L (antibody, name in Kabat numbering, V domains shown, IgG1 kappa) VH: QVQLQESGPGLVKPSQTLSLTCTVSGYSITSDYNSHWIRQPPGKGLEWIGYIHLSGSTNYNPSLKSRVTISRDTSKNQFSLKLSSVTAADTAVYYCARNYGSIYVNYFDYWGQGTLVTVSS VL: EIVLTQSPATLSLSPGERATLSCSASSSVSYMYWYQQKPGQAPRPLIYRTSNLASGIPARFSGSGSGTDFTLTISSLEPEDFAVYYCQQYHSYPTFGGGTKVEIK .
8.62
